Cited source: patent US8242125B2

# TARGET: Ba/F3-Tel-KDR cells (Homo sapiens)
# Construct: fused on or other part: N-terminal oligomerising part of TEL (ETV6) fused to the tyrosine kinase domain of KDR; P41212 (Transcription factor ETV6)
# Sequence (P35968 whole entry, change not shown, the tested form may be a part): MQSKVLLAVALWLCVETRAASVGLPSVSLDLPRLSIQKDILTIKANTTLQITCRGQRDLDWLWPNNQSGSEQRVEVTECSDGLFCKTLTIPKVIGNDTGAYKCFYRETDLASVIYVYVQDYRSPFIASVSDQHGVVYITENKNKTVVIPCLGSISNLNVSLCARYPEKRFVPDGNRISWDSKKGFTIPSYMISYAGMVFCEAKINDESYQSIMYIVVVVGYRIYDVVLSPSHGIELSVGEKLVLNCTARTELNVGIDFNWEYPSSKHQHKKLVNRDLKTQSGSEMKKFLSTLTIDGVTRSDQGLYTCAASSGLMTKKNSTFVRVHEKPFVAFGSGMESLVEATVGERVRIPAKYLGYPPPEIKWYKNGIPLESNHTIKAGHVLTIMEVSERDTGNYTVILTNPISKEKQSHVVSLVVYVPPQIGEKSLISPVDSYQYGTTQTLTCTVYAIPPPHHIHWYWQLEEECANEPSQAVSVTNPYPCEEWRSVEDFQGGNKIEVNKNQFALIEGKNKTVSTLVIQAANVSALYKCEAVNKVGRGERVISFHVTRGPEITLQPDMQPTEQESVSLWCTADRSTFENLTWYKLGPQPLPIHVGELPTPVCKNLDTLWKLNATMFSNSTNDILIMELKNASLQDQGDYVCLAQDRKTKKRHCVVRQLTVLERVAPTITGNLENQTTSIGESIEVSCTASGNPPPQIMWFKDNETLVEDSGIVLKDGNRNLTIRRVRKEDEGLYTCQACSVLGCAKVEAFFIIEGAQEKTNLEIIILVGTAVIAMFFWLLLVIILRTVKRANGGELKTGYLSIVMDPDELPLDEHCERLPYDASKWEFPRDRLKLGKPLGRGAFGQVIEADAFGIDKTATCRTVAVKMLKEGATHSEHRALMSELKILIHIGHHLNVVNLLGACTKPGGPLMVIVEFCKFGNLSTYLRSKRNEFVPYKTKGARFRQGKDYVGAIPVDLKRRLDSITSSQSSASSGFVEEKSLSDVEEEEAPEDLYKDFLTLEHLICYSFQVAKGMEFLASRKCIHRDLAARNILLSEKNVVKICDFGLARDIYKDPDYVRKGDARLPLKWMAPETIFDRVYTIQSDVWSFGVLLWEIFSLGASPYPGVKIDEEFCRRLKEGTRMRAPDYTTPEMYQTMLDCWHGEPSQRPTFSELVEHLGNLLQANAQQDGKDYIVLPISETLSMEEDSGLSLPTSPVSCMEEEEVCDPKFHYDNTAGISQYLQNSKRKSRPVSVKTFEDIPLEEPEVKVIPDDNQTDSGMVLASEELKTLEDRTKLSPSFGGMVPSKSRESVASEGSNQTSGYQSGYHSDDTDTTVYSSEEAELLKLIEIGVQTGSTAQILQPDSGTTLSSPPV
# EXPERIMENT_NOTES: Ba/F3-Tel-KDR cell viability inhibition assay (CellTiter-Glo)
# Format: cell-based
# EXPERIMENTAL_PARAMETERS: 48 hour incubation, read-out: IC50 (the source's name)
Listed here: items and their measured GI50.

Answered cases to consult:
COMPOUND: CC(=O)N1CC2C[C@H]1CN2Cc1cc(Oc2ccc3c(ccn3C(=O)Nc3cccc(C(F)(F)F)c3)c2)ncn1 (stereo in doubt)
GI50: < 1 nM
//
COMPOUND: CS(=O)(=O)Cc1cc(Oc2ccc3c(ccn3C(=O)Nc3ccc(F)c(C(F)(F)F)c3)c2)ncn1
GI50: < 1 nM

Query block: I am curious: what GI50 value has been reported for CC(=O)N1Cc2ncnc(Oc3ccc4c(ccn4C(=O)Nc4ccn(C(C)(C)C)n4)c3)c2C[C@@H]1C ?
Result block: < 1 nM

###

# TARGET: Ba/F3-Tel-KDR cells (Homo sapiens)
# Construct: fused on or other part: N-terminal oligomerising part of TEL (ETV6) fused to the tyrosine kinase domain of KDR; P41212 (Transcription factor ETV6)
# EXPERIMENT_NOTES: Ba/F3-Tel-KDR cell viability inhibition assay (CellTiter-Glo)
# Format: cell-based
# EXPERIMENTAL_PARAMETERS: 48 hour incubation, read-out: IC50 (the source's name)
Recorded GI50 split into classes low: < 4 nM; middle: ≥ 4 nM and < 20 nM; high: ≥ 20 nM

COMPOUND: CC(=O)N1Cc2ncnc(Oc3ccc4c(ccn4C(=O)Nc4cc(C5CC5)on4)c3C)c2C[C@@H]1C
CATEGORY_LABEL: low

COMPOUND: Cc1cc2cc(Oc3ncnc4c3CNC4)ccc2n1C(=O)Nc1cc(C(C)(C)C)on1
CATEGORY_LABEL: low

COMPOUND: CCN(CC)CCC(=O)N1CCc2c(ncnc2Oc2ccc3c(ccn3C(=O)Nc3cccc(C(F)(F)F)c3)c2)C1
CATEGORY_LABEL: middle

COMPOUND: C[C@H]1Cc2c(ncnc2Oc2ccc3c(ccn3C(=O)Nc3cc(C4CC4)on3)c2)CN1C(=O)C1CC1
CATEGORY_LABEL: low

Query block: Note: place this compound into its band. Item: CNCc1cc(Oc2ccc3c(ccn3C(=O)Nc3cc(C4CC4)[nH]n3)c2)ncn1
Result block: middle

Query block: Cool, now O=C(Nc1cc(C2(C(F)(F)F)CC2)on1)n1ccc2cc(Oc3ncnc4c3CCCNC4)ccc21
Result block: low

Query block: Cool, now CNC(=O)C1Cc2c(ncnc2Oc2ccc3c(ccn3C(=O)Nc3cc(C4CC4)on3)c2)CN1 (racemic)
Result block: high

Query block: Cool, now CN1Cc2ncnc(Oc3ccc4c(ccn4C(=O)Nc4cccc(C(F)(F)F)c4)c3)c2C1
Result block: middle

Query block: Cool, now CNCc1cc(Oc2ccc3c(ccn3C(=O)Nc3ccc(OC)c(C(F)(F)F)c3)c2)ncn1
Result block: low

Query block: Cool, now O=C(Nc1ccc(F)c(C(F)(F)F)c1)n1ccc2cc(Oc3ncnc4c3CCNC4)ccc21
Result block: high

Query block: Cool, now CCC(=O)N1Cc2ncnc(Oc3ccc4c(ccn4C(=O)Nc4cc(C5CC5)on4)c3)c2C[C@@H]1C
Result block: low
